# Test system: COLO 205 colon
# experiment notes: NCI tumour cell line growth inhibition, 48 h
reported endpoint: TGI

1. C=C(C)[C@@H]1CC[C@]2(COC(C)=O)CC[C@]3(C)[C@H](CC[C@@H]4[C@@]5(C)CCCN(C(C)=O)C(C)(C)[C@@H]5CC[C@]43C)[C@@H]12; 2550 nM
2. C=C1C(=O)O[C@H]2[C@H]1CC/C(COC(=O)NCc1[nH]nc3ccccc13)=C\CC[C@@]1(C)O[C@@H]21; 2930 nM

Asked: Suppose we examine the compound N#CCCN(CCNc1ccccc1)C(=O)Nc1ccc(NC(=O)N(CCC#N)CCNc2ccccc2)cc1 ; what TGI value has been reported?
Given back: > 100000 nM

Asked: Can you share its TGI? I mean this compound: CCCCN(CCCC)CC(O)c1ccc(OCc2ccccc2)c2ccccc12 (centres undefined)
Given back: 12100 nM

---

# Test system: SNB-75 CNS
# experiment notes: NCI tumour cell line growth inhibition, 48 h; in the data active = GI50 below about 0.43 µM; inactive = the rest
Write down the outcome that applies. Available outcomes: yes (1) for active, no (0) for inactive

As a guide, the following entries are already answered.
1) CCC(CC)COC(=O)[C@H](C)N[P@](=O)(OC[C@H]1O[C@@](C#N)(c2ccc3c(N)ncnn23)[C@H](O)[C@@H]1O)Oc1ccccc1; no (0)
2) O=C(NC1CCCCC1)NS(=O)(=O)c1ccc(-n2nc3c(c2-c2cccs2)Cc2ccccc2-3)cc1; no (0)
3) COc1ccc2c(c1)CC[C@@H]1[C@@H]2CC[C@]2(C)C(c3ccsc3)=C(/C=C/C(=O)c3ccccc3)C[C@@H]12; no (0)

Asked: Give the logged outcome of this assay for the following compound: CC[C@@]1(O)C(=O)OCc2c1cc1n(c2=O)Cc2cc3c([N+](=O)[O-])c(OC)ccc3nc2-1
Given back: yes (1)

---

Overview of recorded TGI for various compounds
# Tested on: UACC-62 melanoma
# experiment notes: NCI tumour cell line growth inhibition, 48 h

// solved cases for TGI follow
1) Nc1nc2cc(-c3ccc4ncc(C(=O)N5CCOCC5)n4c3)ccc2o1; > 100 µM
2) CC1=C(C(=O)Nc2ccc(Cl)c(Cl)c2)C(c2ccccc2Cl)NC(=S)N1 (stereo not given); 18.9 µM
3) CC1(C)[C@@H](Cn2nnc3c(N)ncnc32)CC[C@@]1(C)CO; > 100 µM
4) COc1cc(-c2cncn2-c2ccc(-c3nc4ccc(F)cc4s3)cc2)ccc1F; > 100 µM

Next up:
Asked: Data request, read-out TGI, for COc1ccc2c(c1)O[C@@H]1[C@@H](OC3OC(CO)C(O)C(O)C3O)Oc3cc(OC)c(OC)cc3[C@]1(O)C2=O (stereo not given in full)
Given back: > 100 µM

---

# Test system: MDA-MB-231 breast
# experiment notes: NCI tumour cell line growth inhibition, 48 h
Each record here notes measured log10 of TGI.
Lab note - TGI converted to log10 from values in µM.

1) COc1ccc(/C=C2\CS(=O)(=O)C/C(=C\c3ccc(OC)cc3)C2=O)cc1; 0.98
2) CN(CCO)C1CCN(c2ccc(Nc3ncc4c5ccnc(F)c5n(C5CCCC5)c4n3)nc2)CC1; 1.38
3) Nc1nc2cc(-c3ccc4ncc(C(=O)N5CCOCC5)n4c3)ccc2o1; 1.83
4) CN(C)c1ccc(O)c2c1CC1CC3C(N(C)C)C(=O)C(C(N)=O)=C(O)C3(O)C(=O)C1=C2O (stereo unspecified); 1.67
5) Cc1noc(NS(=O)(=O)c2ccc(NC(=O)c3ccc4nc5ccccc5c(Nc5ccc(S(=O)(=O)Nc6onc(C)c6C)cc5)c4c3)cc2)c1C; 1.91
6) CNCCCNc1c2cc(OC)ccc2nc2cccc([N+](=O)[O-])c12; -0.17

Asked: Request the reported log10 of TGI associated with Cc1cc(C)c2c(=O)cc(-c3cccc(Cl)c3)[nH]c2n1
Given back: 0.91

Asked: Report log10 of TGI for COC(=O)c1c2c(c(C)[n+]([O-])c1C)C(=O)C(NCc1cccc(Cl)c1)=CC2=O please.
Given back: 0.69

Asked: I would be grateful if you could share the reported log10 of TGI for CC(C)(C)CC(C)(C)c1ccc(OCCSC(=N)N)cc1 .
Given back: 0.45

Asked: # log10 of TGI lookup, item CCC(CC)COC(=O)[C@H](C)N[P@](=O)(OC[C@H]1O[C@@](C#N)(c2ccc3c(N)ncnn23)[C@H](O)[C@@H]1O)Oc1ccccc1
Given back: 1.91

Origin of the recorded values: PubChem BioAssay (NCI)
